Sourced from patent US6951840B2

Molecular target: E. coli SPase I (Escherichia coli, UniProt P00803, I81L)
Construct: His-tag (inferred from vector pET15b cloned at NdeI/XhoI and Ni-NTA purification)
Sequence (P00803 77-324 I81L): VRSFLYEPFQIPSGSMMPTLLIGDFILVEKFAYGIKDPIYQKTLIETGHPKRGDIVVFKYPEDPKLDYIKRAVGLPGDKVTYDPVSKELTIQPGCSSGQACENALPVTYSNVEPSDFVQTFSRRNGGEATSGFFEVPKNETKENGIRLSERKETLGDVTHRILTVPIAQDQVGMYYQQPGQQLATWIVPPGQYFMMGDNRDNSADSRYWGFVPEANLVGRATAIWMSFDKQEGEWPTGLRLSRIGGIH
Assay: Fluorimetric IC50 determination, E. coli signal peptidase
pIC50: −log10 of the molar value.
Measured pIC50 values are reported for all entries that follow.

compound	pIC50
CC(C)CCCCCCCCCCC(=O)N(C)C(CO)C(=O)NC(C)C(=O)NCC(=O)N(C)C1C(=O)NC(C)C(=O)NC(C(=O)O)Cc2ccc(O)c(c2)-c2cc1cc(O)c2OC1OC(C)C(O)C(O)C1O (centres unmarked)	6.96
CC(C)CCCCCCCCCCCCC(=O)N(C)C(CO)C(=O)NC(C)C(=O)NCC(=O)N(C)C1C(=O)NC(C)C(=O)NC(C(=O)O)Cc2ccc(O)c(c2)-c2cc1cc(O)c2OC1OC(C)C(O)C(O)C1O (centres unmarked)	6.77
CCCCCCCCCCCCCCC(=O)N(C)C(CO)C(=O)NC(C)C(=O)NCC(=O)N(C)C1C(=O)NC(C)C(=O)NC(C(=O)O)Cc2ccc(O)c(c2)-c2cc1ccc2OC1OC(C)C(O)C(O)C1O (centres unmarked)	6.89
CC(C)CCCCCCCCCCC(=O)N(C)C(CO)C(=O)NC(C)C(=O)NCC(=O)N(C)C1C(=O)NC(C)C(=O)NC(C(=O)O)Cc2ccc(O)c(c2)-c2cc1ccc2OC1OC(C)C(O)C(O)C1O (centres unmarked)	6.96
CC(C)CCCCCCCCCCCCC(=O)N(C)C(CO)C(=O)NC(C)C(=O)NCC(=O)N(C)C1C(=O)NC(C)C(=O)NC(C(=O)O)Cc2ccc(O)c(c2)-c2cc1ccc2OC1OC(C)C(O)C(O)C1O (centres unmarked)	6.89
CCCCCCCCCCCCCC(=O)N(C)C(CO)C(=O)NC(C)C(=O)NCC(=O)N(C)C1C(=O)NC(C)C(=O)NC(C(=O)O)Cc2ccc(O)c(c2)-c2cc1ccc2OC1OC(C)C(O)C(O)C1O (centres unmarked)	6.96
CCCCCCCCCCCCCCCC(=O)N(C)C(CO)C(=O)NC(C)C(=O)NCC(=O)N(C)C1C(=O)NC(C)C(=O)NC(C(=O)O)Cc2ccc(O)c(c2)-c2cc1cc(O)c2OC1OC(C)C(O)C(O)C1O (centres unmarked)	6.72
CC(C)CCCCCCCCCCCC(=O)N(C)C(CO)C(=O)NC(C)C(=O)NCC(=O)N(C)C1C(=O)NC(C)C(=O)NC(C(=O)O)Cc2ccc(O)c(c2)-c2cc1ccc2OC1OC(C)C(O)C(O)C1O (centres unmarked)	6.89

====

Measured MIC values are reported for all entries that follow.
Tested on: Staphylococcus aureus SA027
Assay: Broth micro-dilution MIC, S. aureus SA027
Format: cell-based
Conditions: MHII broth, 23-24 hr at 37° C.
Protocol: The in vitro antibacterial activity of lipoglycopeptides 1, 2, 5, 6, 7, and 8 is determined according to the National Committee for Clinical Laboratory Standards (NCCLS) recommendations for broth micro-dilution assay using 2xsTH (Todd Hewitt broth), MHII (cation adjusted Mueller Hinton broth) or HTM medium (Haemophilus Test Medium) (Gerhardt, P., et al., (1994) Methods for General and Molecular Bacteriology. American Society for Microbiology, Washington, D.C.). […]

compound	assayed_system	MIC
CCCCCCCCCCCCCC(=O)N(C)C(CO)C(=O)NC(C)C(=O)NCC(=O)N(C)C1C(=O)NC(C)C(=O)NC(C(=O)O)Cc2ccc(O)c(c2)-c2cc1ccc2OC1OC(C)C(O)C(O)C1O (stereo not drawn)	Staphylococcus aureus SA027	> 64 µg/mL
CC(C)CCCCCCCCCCCCC(=O)N(C)C(CO)C(=O)NC(C)C(=O)NCC(=O)N(C)C1C(=O)NC(C)C(=O)NC(C(=O)O)Cc2ccc(O)c(c2)-c2cc1cc(O)c2OC1OC(C)C(O)C(O)C1O (stereo not drawn)	Staphylococcus aureus SA027	32 µg/mL
CCCCCCCCCCCCCCCC(=O)N(C)C(CO)C(=O)NC(C)C(=O)NCC(=O)N(C)C1C(=O)NC(C)C(=O)NC(C(=O)O)Cc2ccc(O)c(c2)-c2cc1cc(O)c2OC1OC(C)C(O)C(O)C1O (stereo not drawn)	Staphylococcus aureus SA027	64 µg/mL
CC(C)CCCCCCCCCCC(=O)N(C)C(CO)C(=O)NC(C)C(=O)NCC(=O)N(C)C1C(=O)NC(C)C(=O)NC(C(=O)O)Cc2ccc(O)c(c2)-c2cc1cc(O)c2OC1OC(C)C(O)C(O)C1O (stereo not drawn)	Staphylococcus aureus SA027	> 64 µg/mL
CC(C)CCCCCCCCCCC(=O)N(C)C(CO)C(=O)NC(C)C(=O)NCC(=O)N(C)C1C(=O)NC(C)C(=O)NC(C(=O)O)Cc2ccc(O)c(c2)-c2cc1ccc2OC1OC(C)C(O)C(O)C1O (stereo not drawn)	Staphylococcus aureus SA027	> 64 µg/mL
CC(C)CCCCCCCCCCCCC(=O)N(C)C(CO)C(=O)NC(C)C(=O)NCC(=O)N(C)C1C(=O)NC(C)C(=O)NC(C(=O)O)Cc2ccc(O)c(c2)-c2cc1ccc2OC1OC(C)C(O)C(O)C1O (stereo not drawn)	Staphylococcus aureus SA027	> 64 µg/mL
